Test system: Escherichia coli TOP10;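 further: peptides expressed intracellularly from a pBAD plasmid library in pooled LB shake-flask culture, induced with 0.3% L-arabinose, DNA abundance read by NGS, three biological replicates, DESeq2 with apeglm shrinkage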
Procedure text: shrunken log2 fold change of peptide-encoding DNA abundance (4.5 h post-induction vs induction); higher = less antimicrobial activity (less host growth inhibition)
Experimental context: time post-induction: 4.5 h; library: site-saturation at positions 5, 18, 19, 20
Param threshold (0.03) applies to shrunken log2 fold change; output MET when value >= threshold, NOT MET when value < threshold.

Recorded results for 3 sequences are shown here.
1. RRIRHRPPRLPRPRPRPYCSPRP : NOT MET
2. RRIRLRPPRLPRPRPRPPELPRP : MET
3. RRIRERPPRLPRPRPRPYSQPRP : NOT MET

// query Assess whether reported shrunken log2 fold change for `RRIRRRPPRLPRPRPRPTGVPRP` sits at 0.03 or higher.
// result MET

// query Subsequent entry: `RRIRARPPRLPRPRPRPFWHPRP`
// result MET

// query Subsequent entry: `RRIRVRPPRLPRPRPRPGRKPRP`
// result NOT MET
